target: PRMT5 (Homo sapiens); construct: purchased Viva (custom protein); test: PRMT5 biochemical IC50 assay with MTA as cofactor; conditions: PRMT5, MTA as cofactor; read-out: MTA IC50
Sequence (O14744 whole entry): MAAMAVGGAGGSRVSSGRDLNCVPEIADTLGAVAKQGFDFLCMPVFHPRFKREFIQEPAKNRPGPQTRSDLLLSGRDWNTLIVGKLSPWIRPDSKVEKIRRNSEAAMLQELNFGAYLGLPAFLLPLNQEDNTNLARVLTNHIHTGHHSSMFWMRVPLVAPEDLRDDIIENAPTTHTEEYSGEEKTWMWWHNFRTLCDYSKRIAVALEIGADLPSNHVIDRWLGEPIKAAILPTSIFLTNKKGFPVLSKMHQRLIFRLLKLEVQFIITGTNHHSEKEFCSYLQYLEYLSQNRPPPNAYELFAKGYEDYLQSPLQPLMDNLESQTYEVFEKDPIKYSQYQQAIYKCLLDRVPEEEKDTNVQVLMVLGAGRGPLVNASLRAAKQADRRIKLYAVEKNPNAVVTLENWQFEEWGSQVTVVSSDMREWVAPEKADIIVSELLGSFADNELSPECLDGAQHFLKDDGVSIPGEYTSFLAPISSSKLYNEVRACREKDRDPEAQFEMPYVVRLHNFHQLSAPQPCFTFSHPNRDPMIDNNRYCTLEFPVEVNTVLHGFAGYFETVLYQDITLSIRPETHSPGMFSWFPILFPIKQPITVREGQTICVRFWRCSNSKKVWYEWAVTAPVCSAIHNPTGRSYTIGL
Sequence (Q9BQA1 whole entry partner): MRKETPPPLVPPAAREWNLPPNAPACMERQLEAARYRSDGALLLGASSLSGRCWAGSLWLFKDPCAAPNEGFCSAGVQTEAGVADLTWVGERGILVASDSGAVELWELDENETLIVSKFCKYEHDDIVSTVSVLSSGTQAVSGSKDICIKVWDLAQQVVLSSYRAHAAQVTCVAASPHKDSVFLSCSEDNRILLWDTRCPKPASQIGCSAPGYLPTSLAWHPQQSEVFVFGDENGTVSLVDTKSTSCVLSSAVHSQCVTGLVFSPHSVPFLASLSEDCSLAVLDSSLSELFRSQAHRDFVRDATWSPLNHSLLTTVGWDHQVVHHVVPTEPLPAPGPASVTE
pIC50: −log10 of the molar value.
readout_name: pIC50

CCc1cc(NC(=O)C(=O)N2C[C@H](C)CC[C@H]2c2ccc(NS(C)(=O)=O)nc2)cnc1N (single isomer, unassigned) [Compound 995] = 6.30 to 7.30

Query C[C@@H]1CC[C@H](C2CCCCC2)N(C(=O)C(=O)Nc2cncc(C(N)=O)c2)C1 (single isomer, unassigned) [Compound 127] yields pIC50 of < 6.30

Sample Cc1ncc([C@@H]2CC[C@@H](C)CN2C(=O)C(=O)Nc2cnc(N)c(C)c2)cn1 (racemic) [Compound 107] ; pIC50 observed: 6.30 to 7.30
